# Substrate: Cc1cc2nc3c(=O)[nH]c(=O)nc-3n(C[C@H](O)[C@H](O)[C@H](O)COP(=O)(O)OP(=O)(O)OC[C@H]3O[C@@H](n4cnc5c(N)ncnc54)[C@H](O)[C@@H]3O)c2cc1C
# measurement notes: purified protein
# Type: biochemical, Homo sapiens
# test parameters: co-substrate NADPH
parameter: kcat

protein	parameter	value
human BLVRB (biliverdin reductase B) (Homo sapiens; S111A) (protein, full length, 206 residues; codon-optimised, pET21b (T164S in pJ401k); N-terminal 6xHis tag removed with thrombin) MAVKKIAIFGATGQTGLTTLAQAVQAGYEVTVLVRDSSRLPSEGPRPAHVVVGDVLQAADVDKTVAGQDAVIVLLGTRNDLSPTTVMSEGARNIVAAMKAHGVDKVVACTAAFLLWDPTKVPPRLQAVTDDHIRMHKVLRESGLKYVAVMPPHIGDQPLTGAYTVTLDGRGPSRVISKHDLGHFMLRCLTTDEYDGHSTYPSHQYQ	kcat	0.021 s⁻¹
human BLVRB (biliverdin reductase B) (Homo sapiens; H153A) (protein, full length, 206 residues; codon-optimised, pET21b (T164S in pJ401k); N-terminal 6xHis tag removed with thrombin) MAVKKIAIFGATGQTGLTTLAQAVQAGYEVTVLVRDSSRLPSEGPRPAHVVVGDVLQAADVDKTVAGQDAVIVLLGTRNDLSPTTVMSEGARNIVAAMKAHGVDKVVACTSAFLLWDPTKVPPRLQAVTDDHIRMHKVLRESGLKYVAVMPPAIGDQPLTGAYTVTLDGRGPSRVISKHDLGHFMLRCLTTDEYDGHSTYPSHQYQ	kcat	0.059 s⁻¹
